Reported melting point values are given for each entry in this list.

Look over these answered cases.
1. Cc1cc(C)c(NC(=O)c2sccc2S(=O)(=O)Nc2onc(C)c2Cl)c(Cl)c1 | 174 to 176 °C
2. Cc1cc(-c2ncco2)cc(C)c1NC(=O)c1sccc1S(=O)(=O)Nc1onc(C)c1Cl | 205 to 207 °C
3. Cc1cc(C)c(NC(=O)c2sccc2S(=O)(=O)Nc2onc(C)c2Cl)c(S(C)(=O)=O)c1 | 208 to 210 °C
4. CCCc1c(O)c(C(C)=O)cc(C(C)=O)c1NC(=O)c1sccc1S(=O)(=O)Nc1onc(C)c1Cl | 163 to 167 °C
5. CC(=O)c1c(C)c(C)cc(C)c1NC(=O)c1sccc1S(=O)(=O)Nc1onc(C)c1Cl | 223 to 225 °C
6. CCc1cc(C)cc(C)c1NC(=O)c1sccc1S(=O)(=O)Nc1onc(C)c1Cl | 152 to 154 °C

Item: Cc1nc(C)c(NC(=O)c2sccc2S(=O)(=O)Nc2onc(C)c2Cl)c(C)n1 | melting point: 170 to 175 °C

Item: Cc1cc(C)c(OCC2CC2)c(C)c1NC(=O)c1sccc1S(=O)(=O)Nc1onc(C)c1Cl | melting point: 155 to 158 °C

Item: Cc1cc(C)c(NC(=O)c2sccc2S(=O)(=O)Nc2onc(C)c2Cl)c(C(=O)N(C)CC(C)(C)C)c1 | melting point: 174 to 176 °C

Item: CCCS(=O)(=O)c1cc(C)cc(C)c1NC(=O)c1sccc1S(=O)(=O)Nc1onc(C)c1Cl | melting point: 152 to 155 °C

Item: CO/N=C(\C)c1cc(C)cc(C)c1NC(=O)c1sccc1S(=O)(=O)Nc1onc(C)c1Cl | melting point: 140 to 145 °C

The origin of these recorded values is patent US6686382B2.
